Property: self-splicing fitness (ln); scope: individual sequences
# METHOD DESCRIPTION: self-splicing fitness, log relative to wild type (ln ratio); higher = more splicing; Tetrahymena group I intron in knt gene, E. coli kanamycin selection, DiMSum; sequences stand for … in CUCUCU…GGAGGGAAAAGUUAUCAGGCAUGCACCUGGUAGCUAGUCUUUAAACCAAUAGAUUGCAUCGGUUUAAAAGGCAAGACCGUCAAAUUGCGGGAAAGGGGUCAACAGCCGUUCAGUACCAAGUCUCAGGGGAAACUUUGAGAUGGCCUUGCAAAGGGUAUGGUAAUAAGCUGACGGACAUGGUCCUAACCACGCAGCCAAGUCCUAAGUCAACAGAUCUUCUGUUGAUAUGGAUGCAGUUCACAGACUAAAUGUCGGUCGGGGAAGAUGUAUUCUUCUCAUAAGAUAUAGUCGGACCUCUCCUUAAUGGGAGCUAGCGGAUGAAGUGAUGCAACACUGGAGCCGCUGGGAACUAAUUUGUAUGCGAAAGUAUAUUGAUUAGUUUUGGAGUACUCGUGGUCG;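 further: selection with 25 µg/mL kanamycin versus none on LB agar overnight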
# CONDITION SET: 37 °C

GCUGAGCAAUAUUACGUUGC | -2.53
AUUUAGCAAUAUUACGACUG | -1.41
GCCCAGCAAUAUUACGAGUU | -0.432
UUGAAGCAAUAUUACGAUCC | -1.38

Query: Report measured self-splicing fitness (ln); entry is CUGGAGCAAUAUUACGGCCA
Response: -1.99

Query: Specify measured self-splicing fitness (ln) for GGCUAGCAAUAUUACGGGUC .
Response: -2.26

Query: Quote self-splicing fitness (ln) reported for GCAGAGCAAUAUUACGGUUA please.
Response: -2.17

Query: Supply recorded self-splicing fitness (ln) for CGGCAGCAAUAUUACGCUGU here.
Response: -2.29

Query: Identify measured self-splicing fitness (ln) associated with ACCGAGCAAUAUUACGCGAG
Response: -2.06

Query: Let me know recorded self-splicing fitness (ln) for AGAAAGCAAUAUUACGGUUG , thanks.
Response: -1.78

Query: # return recorded self-splicing fitness (ln) for entry GAAGAGCAAUAUUACGGACC
Response: -0.884

Query: Using the record for GUCCAGCAAUAUUACGUGGC , state its measured self-splicing fitness (ln).
Response: -3.46

Query: Indicate its recorded self-splicing fitness (ln); the sequence in question is CAGAAGCAAUAUUACGUACG
Response: 0.665

---

# METHOD DESCRIPTION: self-splicing fitness, log relative to wild type (ln ratio); higher = more splicing; Tetrahymena group I intron in knt gene, E. coli kanamycin selection, DiMSum; sequences stand for … in CUCUCU…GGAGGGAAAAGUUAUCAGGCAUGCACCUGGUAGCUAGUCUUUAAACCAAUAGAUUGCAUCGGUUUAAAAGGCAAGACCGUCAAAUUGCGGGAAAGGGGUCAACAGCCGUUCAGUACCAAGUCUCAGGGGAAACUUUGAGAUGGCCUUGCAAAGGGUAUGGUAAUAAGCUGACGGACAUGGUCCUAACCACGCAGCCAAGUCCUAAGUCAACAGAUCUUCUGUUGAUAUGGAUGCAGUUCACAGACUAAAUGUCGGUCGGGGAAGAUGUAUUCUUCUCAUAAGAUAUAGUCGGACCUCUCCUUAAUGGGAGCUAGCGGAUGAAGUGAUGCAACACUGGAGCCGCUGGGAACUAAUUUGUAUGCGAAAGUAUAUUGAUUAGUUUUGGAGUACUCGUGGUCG
# CONDITION SET: 30 °C
self-splicing fitness (ln) values by entry
Returns: the value as a bare number; no unit string appended.

# count of solved cases: 5
GACUAGCAAUAUUACGUAAA | -0.826
CUGUAGCAAUAUUACGUUUC | -3.58
AGAGAGCAAUAUUACGCAUU | -3.41
GGGGAGCAAUAUUACGUCUC | -1.64
UAUCAGCAAUAUUACGGGCG | 0.0109

Query: State, in one line, measured self-splicing fitness (ln) of GUGUAGCAAUAUUACGUUUA
Response: -2.51

Query: Item ACGUAGCAAUAUUACGUUGA : provide self-splicing fitness (ln)
Response: -3.4

Query: Return self-splicing fitness (ln) for the following sequence: UAUGAGCAAUAUUACGAAGG
Response: -3.5

Query: Output self-splicing fitness (ln) of CUUGAGCAAUAUUACGUGAG
Response: -2.89

Query: Using the record for UAACAGCAAUAUUACGUUAC , state its measured self-splicing fitness (ln).
Response: -3.91

Query: Give the measured self-splicing fitness (ln) for GUCGAGCAAUAUUACGUUCU
Response: -1.32

Query: Give the measured self-splicing fitness (ln) for AGAAAGCAAUAUUACGUAAC
Response: -3.26

Query: # return recorded self-splicing fitness (ln) for entry CAAAAGCAAUAUUACGAAUC
Response: -4.86

Query: Item UUAAAGCAAUAUUACGGGGC : provide self-splicing fitness (ln)
Response: -3.68

Query: Using the record for UAGCAGCAAUAUUACGGACC , state its measured self-splicing fitness (ln).
Response: -1.74

Query: Quick one: give measured self-splicing fitness (ln) for CCUGAGCAAUAUUACGGUGC
Response: -2.51

---

# METHOD DESCRIPTION: self-splicing fitness, log relative to wild type (ln ratio); higher = more splicing; Tetrahymena group I intron in knt gene, E. coli kanamycin selection, DiMSum; sequences stand for … in CUCUCU…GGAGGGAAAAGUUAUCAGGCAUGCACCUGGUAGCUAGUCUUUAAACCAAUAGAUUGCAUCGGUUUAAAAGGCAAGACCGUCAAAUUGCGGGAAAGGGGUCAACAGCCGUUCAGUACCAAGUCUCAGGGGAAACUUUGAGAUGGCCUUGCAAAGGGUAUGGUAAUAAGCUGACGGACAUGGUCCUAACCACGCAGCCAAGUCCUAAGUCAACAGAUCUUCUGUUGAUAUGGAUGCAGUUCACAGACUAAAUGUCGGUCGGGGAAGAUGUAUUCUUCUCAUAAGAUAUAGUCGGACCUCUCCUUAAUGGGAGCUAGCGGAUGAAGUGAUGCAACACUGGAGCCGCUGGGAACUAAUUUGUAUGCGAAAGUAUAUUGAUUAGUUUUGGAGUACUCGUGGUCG
# CONDITION SET: 30 °C
ASSAY READOUT: self-splicing fitness (ln)
Could you keep your reply to the number by itself?

These recorded examples may help you get a feel for the data.
GCAGAGCAAUAUUACGAUGG | -1.98
CAUCAGCAAUAUUACGUCCG | -0.619
AAGCAGCAAUAUUACGCUGC | -3.47

Query: Supply self-splicing fitness (ln) value. Item: UGCCAGCAAUAUUACGGCCU
Response: -0.579

Query: Output self-splicing fitness (ln) of CAUUAGCAAUAUUACGUCCU
Response: -3.14

Query: Annotate the sequence UUCCAGCAAUAUUACGAACC with its measured self-splicing fitness (ln).
Response: -2.74

Query: Name the recorded self-splicing fitness (ln) of the sequence listed here: GAACAGCAAUAUUACGCACU
Response: 0.254

Query: Return value of self-splicing fitness (ln) for input AUGGAGCAAUAUUACGGGCG , no commentary.
Response: -3.21

Query: Write down self-splicing fitness (ln) measured for item UAACAGCAAUAUUACGCUCU
Response: -1.12

Query: State its self-splicing fitness (ln) for this sequence: GCAGAGCAAUAUUACGUGAA
Response: -3.15

Query: Give the reported value of self-splicing fitness (ln) for this record: GUUGAGCAAUAUUACGGGCU
Response: -2.65

Query: Fill in self-splicing fitness (ln) for record ACUGAGCAAUAUUACGCUAA
Response: -3.41

Query: Find the measured self-splicing fitness (ln) of CUUCAGCAAUAUUACGUGAA and report it.
Response: -2.71

Query: Check the records and state self-splicing fitness (ln) for UUGGAGCAAUAUUACGUGAG
Response: -1.84

Query: Give self-splicing fitness (ln) for the following sequence: CUUUAGCAAUAUUACGUGUC
Response: -2.98

Query: Provide self-splicing fitness (ln) value for the following sequence: UGGUAGCAAUAUUACGAGCU
Response: -2.09

---

# METHOD DESCRIPTION: self-splicing fitness, log relative to wild type (ln ratio); higher = more splicing; Tetrahymena group I intron in knt gene, E. coli kanamycin selection, DiMSum; sequences stand for … in CUCUCU…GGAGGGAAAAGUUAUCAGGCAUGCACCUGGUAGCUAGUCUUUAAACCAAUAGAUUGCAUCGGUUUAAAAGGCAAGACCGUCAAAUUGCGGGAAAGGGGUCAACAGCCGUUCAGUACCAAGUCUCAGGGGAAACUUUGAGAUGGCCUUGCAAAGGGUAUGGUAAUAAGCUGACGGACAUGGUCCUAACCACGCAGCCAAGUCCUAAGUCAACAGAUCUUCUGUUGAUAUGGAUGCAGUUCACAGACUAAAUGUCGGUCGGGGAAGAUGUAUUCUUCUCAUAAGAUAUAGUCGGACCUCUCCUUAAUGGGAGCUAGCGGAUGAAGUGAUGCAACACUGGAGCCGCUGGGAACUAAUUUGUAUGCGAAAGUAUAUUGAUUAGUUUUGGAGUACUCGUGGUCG
# CONDITION SET: 37 °C
In this section, each of the sequences is paired with its reported self-splicing fitness (ln).
API note: the answer field is a bare number with no unit suffix.

Consider the worked cases shown below.
CUACAGCAAUAUUACGAUUU | -1.95
AAGUAGCAAUAUUACGUCGC | -1.8
UGUAAGCAAUAUUACGCGCU | -0.315
CAAGAGCAAUAUUACGACGC | -1.56

Query: For GAGCAGCAAUAUUACGGUGC , write its self-splicing fitness (ln).
Response: -2.61

Query: Supply measured self-splicing fitness (ln) of CACUAGCAAUAUUACGUCCG in your reply.
Response: 0.268
